I'd appreciate it if you could supply EC50 values for the items below.
Biological target: UniProt:P11473
Sequence (P11473 1-427): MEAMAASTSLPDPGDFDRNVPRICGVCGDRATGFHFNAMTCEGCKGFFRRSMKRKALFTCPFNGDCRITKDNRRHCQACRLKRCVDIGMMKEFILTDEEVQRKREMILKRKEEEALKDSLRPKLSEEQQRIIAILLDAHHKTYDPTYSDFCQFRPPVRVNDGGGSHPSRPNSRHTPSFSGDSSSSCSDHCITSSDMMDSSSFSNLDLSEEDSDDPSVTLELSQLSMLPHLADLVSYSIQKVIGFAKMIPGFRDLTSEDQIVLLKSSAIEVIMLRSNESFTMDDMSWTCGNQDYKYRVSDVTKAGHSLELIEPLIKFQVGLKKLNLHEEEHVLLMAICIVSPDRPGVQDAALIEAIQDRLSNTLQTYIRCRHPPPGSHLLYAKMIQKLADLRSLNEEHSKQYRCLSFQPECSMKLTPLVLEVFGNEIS
Sequence (P19793 1-462 partner): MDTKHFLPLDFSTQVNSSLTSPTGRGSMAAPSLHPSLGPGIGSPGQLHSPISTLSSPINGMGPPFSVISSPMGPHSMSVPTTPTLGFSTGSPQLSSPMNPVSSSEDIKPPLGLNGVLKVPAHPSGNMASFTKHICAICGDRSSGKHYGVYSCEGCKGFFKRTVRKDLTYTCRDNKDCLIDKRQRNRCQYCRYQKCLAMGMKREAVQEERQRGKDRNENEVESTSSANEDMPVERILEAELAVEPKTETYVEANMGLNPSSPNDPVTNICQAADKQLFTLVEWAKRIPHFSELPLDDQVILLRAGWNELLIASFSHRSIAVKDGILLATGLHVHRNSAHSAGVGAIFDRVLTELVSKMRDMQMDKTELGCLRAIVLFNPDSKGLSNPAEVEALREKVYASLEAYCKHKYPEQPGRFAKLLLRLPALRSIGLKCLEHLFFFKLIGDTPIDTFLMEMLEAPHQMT
Experiment: Evaluation of VDR transcription activity in human osteoblasts (HOS cells), luciferase reporter
Details: Activity (EC50, VDR transcription activity), HOS cells transfected with human VDR, human RXRα and DR3 luciferase reporter; 21 hours

Give the measured EC50 of C=C1/C(=C\C=C2/CCC[C@]3(C)[C@@H]([C@H](C)CN4CCC[C@H](C(C)(F)F)C4)CC[C@@H]23)C[C@@H](O)C[C@@H]1O .
10 to 100 nM

Give the measured EC50 of C=C1/C(=C\C=C2/CCC[C@]3(C)[C@@H]([C@@H](C)CN4CC[C@H](F)C4)CC[C@@H]23)C[C@@H](O)C[C@@H]1O .
10 to 100 nM

Give the measured EC50 of C[C@H](CCN1CC[C@H](C(C)(F)F)C1)[C@H]1CC[C@H]2/C(=C/C=C3C[C@@H](O)C[C@H](O)C3)CCC[C@]12C .
10 to 100 nM

---

Molecular target: human VDR (Homo sapiens, UniProt P11473)
Experiment: Evaluation of VDR transcription activity in human osteoblasts (HOS cells), luciferase reporter
Conditions: Activity (EC50, VDR transcription activity), HOS cells transfected with human VDR, human RXRα and DR3 luciferase reporter; 21 hours
I'd appreciate it if you could supply EC50 values for the items below.

Give the measured EC50 of C=C1/C(=C\C=C2/CCC[C@]3(C)[C@@H]([C@@H](C)CN4CCC(C(F)(F)F)CC4)CC[C@@H]23)C[C@@H](O)[C@H](C)[C@@H]1O .
1 to 10 nM

Give the measured EC50 of C=C1/C(=C\C=C2/CCC[C@]3(C)[C@@H]([C@H](C)CN4CCCC(C)(OC)C4)CC[C@@H]23)C[C@@H](O)C[C@@H]1O (single isomer, unassigned) [Compound C043a] .
1 to 10 nM

Give the measured EC50 of C=C1[C@H](O)CC(=C/C=C2\CCC[C@]3(C)[C@@H]([C@H](C)CN4CCOC(C)(C)C4)CC[C@@H]23)C[C@H]1O .
1 to 10 nM

Give the measured EC50 of C=C1[C@H](O)CC(=C/C=C2\CCC[C@]3(C)[C@@H]([C@H](C)CN4CC[C@@H](C)C4)CC[C@@H]23)C[C@H]1O .
1 to 10 nM

Give the measured EC50 of C=C1/C(=C\C=C2/CCC[C@]3(C)[C@@H]([C@H](C)CN4CC[C@@H](CC(F)F)C4)CC[C@@H]23)C[C@@H](O)[C@H](C)[C@@H]1O .
1 to 10 nM

Give the measured EC50 of C=C1[C@H](O)CC(=C/C=C2\CCC[C@]3(C)[C@@H]([C@H](C)CN4CCC(C(F)F)CC4)CC[C@@H]23)C[C@H]1O .
10 to 100 nM
